molecules and their reported GI50
tested on: SK-MEL-2; assay: NCI tumour cell line growth inhibition, 48 h
Activity calls are given as the source filed them. No stated cut-off is given here; in the data, active = GI50 up to about 1.1 µM and inactive = higher.
MEASURED_METRIC: GI50

INSERT INTO measurements (molecule, recorded_value) VALUES
  ('CNn1c(-c2ccc(C)cc2)n[nH]c1=O', '> 100 µM (inactive)'),
  ('COc1cc(/C=C/C(=O)C(C)(C)C)cc(OC)c1OC', '32.7 µM (inactive)'),
  ('Cc1sc2nc(-c3cc([N+](=O)[O-])c(Cl)cc3Cl)c(/C=N/NC(=N)N)n2c1C', '1.97 µM (inactive)'),
  ('C=C(C1=CC(=O)C(C)(C)O1)[C@@H]1CC=C([C@@H]2CC[C@H]3[C@@]2(C)CC[C@H]2C(C)(C)C(=O)[C@H](O)C[C@]32C)[C@H](O)O1', '2.2 µM (inactive)'),
  ('NCCCCNCCCN1CCOC1=O', '> 100 µM (inactive)'),
  ('O=[N+]([O-])c1ccc(N2CCC(CCCC3CCN(c4ccc([N+](=O)[O-])cc4[N+](=O)[O-])CC3)CC2)c([N+](=O)[O-])c1', '16.9 µM (inactive)'),
  ('CCOC(=O)c1sc2c(C(=O)OCC)n3cc(C)cc(C)c3c2c1O', '> 100 µM (inactive)'),
  ('COC1=CC23CCCN2CCc2cc4c(cc2C3C1O)OCO4 (stereo unspecified)', '54.2 µM (inactive)'),
  ('COC(=O)C1=C(C(=O)OC)C2(C)CCC(=O)C1O2 (stereo unspecified)', '> 10 µM (inactive)'),
  ('CCc1n[nH]c(=O)n1CCCCCCCCCCCCn1c(CC)n[nH]c1=O', '52.8 µM (inactive)'),
  ('Nc1nc(NCCO)c(N=O)c(=O)[nH]1', '> 100 µM (inactive)');
